We begin with a simple list: items and their reported Biodistribution, liver.
- Assay Text: In vivo biodistribution and regional brain uptake in rats
- Experimental Context: male SD rats, i.v., 5 min p.i.

[
  {
    "Compound": "Cn1cc(-c2ccncc2)c(-c2ccc(OCc3ccc4cc(O[11CH3])ccc4n3)cc2)n1 [[^11C]3]",
    "Biodistribution, liver": "5.357 ± 0.989 %ID/gram"
  },
  {
    "Compound": "Cn1cc(-c2ccncc2)c(-c2ccc(OCc3nc4ccccc4cc3O[11CH3])cc2)n1 [[^11C]1]",
    "Biodistribution, liver": "11.005 ± 0.758 %ID/gram"
  },
  {
    "Compound": "Cn1ncc(-c2ccncc2)c1-c1ccc(OCc2cc(O[11CH3])c3ccccc3n2)cc1 [[^11C]4]",
    "Biodistribution, liver": "3.312 ± 0.494 %ID/gram"
  }
]

Let's switch to this compound now.
Look up Biodistribution, liver for this compound: Cn1cc(-c2ccncc2)c(-c2ccc(OCc3cc(O[11CH3])c4ccccc4n3)cc2)n1 [[^11C]2]
7.080 ± 0.435 %ID/gram

====

- Assay Text: In vivo biodistribution and regional brain uptake in rats
- Experimental Context: male SD rats, i.v., 5 min p.i.
Measured Parameter: Biodistribution, kidney (%ID/gram)
Please respond with the number in %ID/gram and leave the unit unwritten.

[
  {
    "Compound": "Cn1cc(-c2ccncc2)c(-c2ccc(OCc3cc(O[11CH3])c4ccccc4n3)cc2)n1 [[^11C]2]",
    "Biodistribution, kidney / %ID/gram": 2.340
  },
  {
    "Compound": "Cn1ncc(-c2ccncc2)c1-c1ccc(OCc2cc(O[11CH3])c3ccccc3n2)cc1 [[^11C]4]",
    "Biodistribution, kidney / %ID/gram": 1.744
  },
  {
    "Compound": "Cn1cc(-c2ccncc2)c(-c2ccc(OCc3ccc4cc(O[11CH3])ccc4n3)cc2)n1 [[^11C]3]",
    "Biodistribution, kidney / %ID/gram": 1.333
  }
]

Shift focus to the following entry.
For the compound shown here, Cn1cc(-c2ccncc2)c(-c2ccc(OCc3nc4ccccc4cc3O[11CH3])cc2)n1 [[^11C]1] , give the reported Biodistribution, kidney.
4.354

====

- Assay Text: In vivo biodistribution and regional brain uptake in rats
- Experimental Context: male SD rats, i.v., 30 min p.i. (control)
Below, each entry is listed alongside its reported Biodistribution, total brain.
Write the number in %ID/gram without appending the unit.

[
  {
    "Molecule": "Cn1cc(-c2ccncc2)c(-c2ccc(OCc3ccc4cc(O[11CH3])ccc4n3)cc2)n1 [[^11C]3]",
    "Biodistribution, total brain [%ID/gram]": 0.105
  },
  {
    "Molecule": "Cn1ncc(-c2ccncc2)c1-c1ccc(OCc2cc(O[11CH3])c3ccccc3n2)cc1 [[^11C]4]",
    "Biodistribution, total brain [%ID/gram]": 0.025
  }
]

Given the molecule Cn1cc(-c2ccncc2)c(-c2ccc(OCc3nc4ccccc4cc3O[11CH3])cc2)n1 [[^11C]1] , what is its reported Biodistribution, total brain?
0.133

Entry Cn1cc(-c2ccncc2)c(-c2ccc(OCc3cc(O[11CH3])c4ccccc4n3)cc2)n1 [[^11C]2] : reported Biodistribution, total brain = ?
0.087

====

Below, each entry is listed with its recorded Biodistribution, blood.
- Assay Text: In vivo biodistribution and regional brain uptake in rats
- Experimental Context: male SD rats, i.v., 60 min p.i.
Entry rule: numbers only, all in %ID/gram.

In the examples that follow, each entry is paired with its recorded Biodistribution, blood.
[
  {
    "Compound": "Cn1cc(-c2ccncc2)c(-c2ccc(OCc3cc(O[11CH3])c4ccccc4n3)cc2)n1 [[^11C]2]",
    "Biodistribution, blood (%ID/gram)": 0.152
  },
  {
    "Compound": "Cn1cc(-c2ccncc2)c(-c2ccc(OCc3ccc4cc(O[11CH3])ccc4n3)cc2)n1 [[^11C]3]",
    "Biodistribution, blood (%ID/gram)": 0.210
  },
  {
    "Compound": "Cn1cc(-c2ccncc2)c(-c2ccc(OCc3nc4ccccc4cc3O[11CH3])cc2)n1 [[^11C]1]",
    "Biodistribution, blood (%ID/gram)": 0.275
  }
]

Moving on to the next compound.
Bench note: what Biodistribution, blood did Cn1ncc(-c2ccncc2)c1-c1ccc(OCc2cc(O[11CH3])c3ccccc3n2)cc1 [[^11C]4] show?
0.067

====

- Assay Text: In vivo biodistribution and regional brain uptake in rats
- Experimental Context: male SD rats, i.v., 60 min p.i.
Entries annotated with measured Biodistribution, total brain
Use %ID/gram as the unit, but write only the number.

[
  {
    "Compound": "Cn1ncc(-c2ccncc2)c1-c1ccc(OCc2cc(O[11CH3])c3ccccc3n2)cc1 [[^11C]4]",
    "Biodistribution, total brain / %ID/gram": 0.015
  },
  {
    "Compound": "Cn1cc(-c2ccncc2)c(-c2ccc(OCc3ccc4cc(O[11CH3])ccc4n3)cc2)n1 [[^11C]3]",
    "Biodistribution, total brain / %ID/gram": 0.074
  },
  {
    "Compound": "Cn1cc(-c2ccncc2)c(-c2ccc(OCc3cc(O[11CH3])c4ccccc4n3)cc2)n1 [[^11C]2]",
    "Biodistribution, total brain / %ID/gram": 0.057
  }
]

Okay, next one:
// returns reported Biodistribution, total brain for input Cn1cc(-c2ccncc2)c(-c2ccc(OCc3nc4ccccc4cc3O[11CH3])cc2)n1 [[^11C]1]
0.095

====

- Assay Text: In vivo biodistribution and regional brain uptake in rats
- Experimental Context: male SD rats, i.v., 30 min p.i. (control)
Measured Parameter: Biodistribution, heart (%ID/gram)
Provide the reading as a plain figure in %ID/gram.

[
  {
    "Molecule": "Cn1cc(-c2ccncc2)c(-c2ccc(OCc3nc4ccccc4cc3O[11CH3])cc2)n1 [[^11C]1]",
    "Biodistribution, heart (%ID/gram)": 0.296
  },
  {
    "Molecule": "Cn1cc(-c2ccncc2)c(-c2ccc(OCc3cc(O[11CH3])c4ccccc4n3)cc2)n1 [[^11C]2]",
    "Biodistribution, heart (%ID/gram)": 0.187
  },
  {
    "Molecule": "Cn1ncc(-c2ccncc2)c1-c1ccc(OCc2cc(O[11CH3])c3ccccc3n2)cc1 [[^11C]4]",
    "Biodistribution, heart (%ID/gram)": 0.132
  }
]

Now look at this entry.
What does the record list as Biodistribution, heart for Cn1cc(-c2ccncc2)c(-c2ccc(OCc3ccc4cc(O[11CH3])ccc4n3)cc2)n1 [[^11C]3] ?
0.264

====

- Assay Text: In vivo biodistribution and regional brain uptake in rats
- Experimental Context: male SD rats, i.v., 5 min p.i.
Measured Parameter: Biodistribution, heart (%ID/gram)
# output: bare number, implied unit %ID/gram

[
  {
    "Compound": "Cn1cc(-c2ccncc2)c(-c2ccc(OCc3cc(O[11CH3])c4ccccc4n3)cc2)n1 [[^11C]2]",
    "Measurement Units": "%ID/gram",
    "Biodistribution, heart": 0.464
  },
  {
    "Compound": "Cn1cc(-c2ccncc2)c(-c2ccc(OCc3nc4ccccc4cc3O[11CH3])cc2)n1 [[^11C]1]",
    "Measurement Units": "%ID/gram",
    "Biodistribution, heart": 0.733
  },
  {
    "Compound": "Cn1cc(-c2ccncc2)c(-c2ccc(OCc3ccc4cc(O[11CH3])ccc4n3)cc2)n1 [[^11C]3]",
    "Measurement Units": "%ID/gram",
    "Biodistribution, heart": 0.416
  }
]

With those in mind, consider the next compound.
What value of Biodistribution, heart has been reported for the following compound? Cn1ncc(-c2ccncc2)c1-c1ccc(OCc2cc(O[11CH3])c3ccccc3n2)cc1 [[^11C]4]
0.335

====

Below, each entry is listed with its recorded Biodistribution, heart.
- Assay Text: In vivo biodistribution and regional brain uptake in rats
- Experimental Context: male SD rats, i.v., 60 min p.i.
Unit %ID/gram implied. Number only.

[
  {
    "Compound": "Cn1ncc(-c2ccncc2)c1-c1ccc(OCc2cc(O[11CH3])c3ccccc3n2)cc1 [[^11C]4]",
    "Quantitative Readout": 0.103
  },
  {
    "Compound": "Cn1cc(-c2ccncc2)c(-c2ccc(OCc3ccc4cc(O[11CH3])ccc4n3)cc2)n1 [[^11C]3]",
    "Quantitative Readout": 0.182
  },
  {
    "Compound": "Cn1cc(-c2ccncc2)c(-c2ccc(OCc3cc(O[11CH3])c4ccccc4n3)cc2)n1 [[^11C]2]",
    "Quantitative Readout": 0.121
  }
]

Next compound, please.
Form field: reported Biodistribution, heart of Cn1cc(-c2ccncc2)c(-c2ccc(OCc3nc4ccccc4cc3O[11CH3])cc2)n1 [[^11C]1]
0.199

====

- Assay Text: In vivo biodistribution and regional brain uptake in rats
- Experimental Context: male SD rats, i.v., 60 min p.i.
Measured Parameter: Biodistribution, lung (%ID/gram)
Kindly answer with a numeric value in %ID/gram, unit omitted.

Previously resolved entries follow.
[
  {
    "Compound": "Cn1cc(-c2ccncc2)c(-c2ccc(OCc3ccc4cc(O[11CH3])ccc4n3)cc2)n1 [[^11C]3]",
    "Quantitative Readout": 0.249
  },
  {
    "Compound": "Cn1ncc(-c2ccncc2)c1-c1ccc(OCc2cc(O[11CH3])c3ccccc3n2)cc1 [[^11C]4]",
    "Quantitative Readout": 0.107
  },
  {
    "Compound": "Cn1cc(-c2ccncc2)c(-c2ccc(OCc3cc(O[11CH3])c4ccccc4n3)cc2)n1 [[^11C]2]",
    "Quantitative Readout": 0.163
  }
]

Switching to the query record.
I have this compound here, Cn1cc(-c2ccncc2)c(-c2ccc(OCc3nc4ccccc4cc3O[11CH3])cc2)n1 [[^11C]1] , and I need its recorded Biodistribution, lung.
0.299
